Target: Thymidylate synthase (Lactobacillus casei, UniProt P00469)
Sequence (P00469 whole entry): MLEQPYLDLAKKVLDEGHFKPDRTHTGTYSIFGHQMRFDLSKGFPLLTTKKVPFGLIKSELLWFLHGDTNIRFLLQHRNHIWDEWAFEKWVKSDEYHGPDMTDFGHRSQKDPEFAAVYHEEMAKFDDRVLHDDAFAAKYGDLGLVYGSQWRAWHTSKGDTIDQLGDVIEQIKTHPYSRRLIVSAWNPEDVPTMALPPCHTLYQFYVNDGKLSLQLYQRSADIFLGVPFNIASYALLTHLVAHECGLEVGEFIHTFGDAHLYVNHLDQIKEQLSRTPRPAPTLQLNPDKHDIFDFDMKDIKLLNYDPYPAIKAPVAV
Test: In vitro inhibitory concentration against Lactobacillus casei thymidylate synthetase
Parameters: species or system Lacticaseibacillus casei
Known pIC50 of a selection of molecules
// pIC50: -log10(molar conc.)

[
  {
    "molecule": "Nc1nc(N)c2c(n1)NCC(CCc1ccc(C(=O)NC(CCC(=O)O)C(=O)O)cc1)C2 (configuration not stated)",
    "measured.parameter": "pIC50",
    "observed": 3.04
  }
]

Now consider the entry below.
Exercise: Record request: pIC50 value, item Nc1nc(N)c2cc(CCc3ccc(C(=O)NC(CCC(=O)O)C(=O)O)cc3)cnc2n1 (configuration not stated)
Key: 4.04
